Biological target: PI3K-α (PIK3CA) wild-type (WT), p110α/p85α complex (Homo sapiens)
Construct: Recombinant, catalytically active human full length PIK3KA Wild-type and H1047R mutant; 6×His (N); purchased EMD Millipore Sigma 14-602M
Assay: PI3K-alpha kinase (PIK3CA) biochemical activity, ADP-Glo, wild-type
Conditions: Soy PI lipid substrate
Items are presented alongside their recorded IC50.

Cc1cc(C(C)Nc2ccccc2C(=O)O)c2oc(-c3ccc4cc[nH]c4n3)cc(=O)c2c1 (stereo not drawn) [Example 14]
1000 to 5000 nM

Given the molecule Cc1cc(C(C)Nc2ccccc2C(=O)O)c2oc(-c3ccc4nccn4c3)cc(=O)c2c1 (single isomer, unassigned) , what is its reported IC50? 1000 to 5000 nM

Given the molecule Cc1cn2nc(-c3cc(=O)c4cc(C(F)(F)F)cc(C(C)Nc5ccccc5C(=O)O)c4o3)ccc2n1 (single isomer, unassigned) , what is its reported IC50? 1000 to 5000 nM

Given the molecule Cc1cc(C(C)Nc2ccccc2C(=O)O)c2oc(-c3cn(C)c4ccccc34)cc(=O)c2c1 (single isomer, unassigned) , what is its reported IC50? 500 to 1000 nM

Given the molecule Cc1cc(C(C)Nc2ccccc2C(=O)O)c2oc(-n3cc4ccccc4n3)cc(=O)c2c1 (single isomer, unassigned) , what is its reported IC50? 1000 to 5000 nM

Given the molecule `Cc1cc([C@@H](C)Nc2ccc(Cl)cc2C(=O)O)c2oc(-c3ccc4nn(C)cc4c3)c(C)c(=O)c2c1` , what is its reported IC50? 500 to 1000 nM

* * *

Molecular target: PI3K-α (PIK3CA) wild-type (WT), p110α/p85α complex (Homo sapiens)
Construct: Recombinant, catalytically active human full length PIK3KA Wild-type and H1047R mutant; 6×His (N); purchased EMD Millipore Sigma 14-602M
Assay: PI3K-alpha kinase (PIK3CA) biochemical activity, ADP-Glo, wild-type
Conditions: Soy PI lipid substrate
Source text: PI3K-Alpha Kinase (PIK3CA) Activity, Wild-Type and H1047R Mutant and Determining IC50 Values for Inhibitors Recombinant, catalytically active human full length PIK3KA Wild-type and H1047R mutant were purchased as 1:1 complex of N-terminal 6×his tagged p110α (catalytic) and untagged p85α (regulatory subunit) from EMD Millipore Sigma (cat. no. 14-602M and 14-792M, respectively). […]
pIC50: −log10 of the molar value.
recordedEndpoint: pIC50

Cc1cc(C(C)Nc2ccccc2C(=O)O)c2oc(-c3cn4ccccc4n3)cc(=O)c2c1 (single isomer, unassigned)
5.00 to 5.30
Cc1cc([C@@H](C)Nc2cccnc2C(=O)O)c2oc(-c3ccc4nn(C)cc4c3)c(C)c(=O)c2c1
5.30 to 6.00
Cc1cc(C(C)Nc2ccccc2C(=O)O)c2oc(-c3ccc4nc(C)cn4c3)cc(=O)c2c1 (single isomer, unassigned) [Example 37]
5.30 to 6.00

Turning now to a further compound:
Given the compound `Cc1cc([C@@H](C)Nc2cccc(F)c2C(=O)O)c2oc(-c3cc4cnccc4o3)c(C)c(=O)c2c1` , what is its reported pIC50? > 6.30

* * *

Molecular target: PI3K-α (PIK3CA) wild-type (WT), p110α/p85α complex (Homo sapiens)
Construct: Recombinant, catalytically active human full length PIK3KA Wild-type and H1047R mutant; 6×His (N); purchased EMD Millipore Sigma 14-602M
Test: PI3K-alpha kinase (PIK3CA) biochemical activity, ADP-Glo, wild-type
Details: Soy PI lipid substrate
pIC50: −log10 of the molar value.
recordedEndpoint: pIC50

Some compounds with known pIC50 results, for comparison:
Cc1cc(C(C)Nc2ccccc2C(=O)O)c2oc(-c3ccc4c(cnn4C)c3)cc(=O)c2c1 (single isomer, unassigned) [Example 26]
> 6.30
Cc1cc([C@@H](C)Nc2ccc(Br)nc2C(=O)O)c2oc(-c3ccc4nn(C)cc4c3)c(C)c(=O)c2c1 [Example 244]
> 6.30

Turning now to a further compound:
Given the compound Cc1cc(C(C)Nc2ccccc2C(=O)O)c2oc(-c3ccc4nn(C)cc4c3)c(C)c(=O)c2c1 (single isomer, unassigned) [Example 91] , what is its reported pIC50? 6.00 to 6.30

* * *

Target: PI3K-α (PIK3CA) in MDA-MB-453 cells (Homo sapiens)
Sequence (P27986 2-724): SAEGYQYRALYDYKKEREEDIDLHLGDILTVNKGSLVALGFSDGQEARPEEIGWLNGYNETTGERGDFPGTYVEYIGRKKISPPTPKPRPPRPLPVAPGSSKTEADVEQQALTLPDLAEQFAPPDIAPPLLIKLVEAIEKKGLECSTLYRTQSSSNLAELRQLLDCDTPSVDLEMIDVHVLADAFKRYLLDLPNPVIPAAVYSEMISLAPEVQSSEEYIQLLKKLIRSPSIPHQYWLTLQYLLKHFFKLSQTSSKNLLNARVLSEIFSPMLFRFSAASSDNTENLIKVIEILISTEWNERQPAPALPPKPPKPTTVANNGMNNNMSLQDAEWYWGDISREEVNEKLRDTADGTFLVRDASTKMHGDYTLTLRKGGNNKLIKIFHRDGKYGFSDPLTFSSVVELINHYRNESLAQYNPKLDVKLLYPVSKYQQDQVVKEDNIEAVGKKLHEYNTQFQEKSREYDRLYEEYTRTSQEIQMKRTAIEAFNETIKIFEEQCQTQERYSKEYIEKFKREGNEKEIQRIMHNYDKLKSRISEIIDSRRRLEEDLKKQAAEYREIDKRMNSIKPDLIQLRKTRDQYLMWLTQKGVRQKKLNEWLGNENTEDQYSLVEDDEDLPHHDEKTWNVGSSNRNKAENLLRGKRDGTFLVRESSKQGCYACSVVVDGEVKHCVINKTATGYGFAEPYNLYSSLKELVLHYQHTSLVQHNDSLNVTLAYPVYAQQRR
Sequence (P42336 whole entry): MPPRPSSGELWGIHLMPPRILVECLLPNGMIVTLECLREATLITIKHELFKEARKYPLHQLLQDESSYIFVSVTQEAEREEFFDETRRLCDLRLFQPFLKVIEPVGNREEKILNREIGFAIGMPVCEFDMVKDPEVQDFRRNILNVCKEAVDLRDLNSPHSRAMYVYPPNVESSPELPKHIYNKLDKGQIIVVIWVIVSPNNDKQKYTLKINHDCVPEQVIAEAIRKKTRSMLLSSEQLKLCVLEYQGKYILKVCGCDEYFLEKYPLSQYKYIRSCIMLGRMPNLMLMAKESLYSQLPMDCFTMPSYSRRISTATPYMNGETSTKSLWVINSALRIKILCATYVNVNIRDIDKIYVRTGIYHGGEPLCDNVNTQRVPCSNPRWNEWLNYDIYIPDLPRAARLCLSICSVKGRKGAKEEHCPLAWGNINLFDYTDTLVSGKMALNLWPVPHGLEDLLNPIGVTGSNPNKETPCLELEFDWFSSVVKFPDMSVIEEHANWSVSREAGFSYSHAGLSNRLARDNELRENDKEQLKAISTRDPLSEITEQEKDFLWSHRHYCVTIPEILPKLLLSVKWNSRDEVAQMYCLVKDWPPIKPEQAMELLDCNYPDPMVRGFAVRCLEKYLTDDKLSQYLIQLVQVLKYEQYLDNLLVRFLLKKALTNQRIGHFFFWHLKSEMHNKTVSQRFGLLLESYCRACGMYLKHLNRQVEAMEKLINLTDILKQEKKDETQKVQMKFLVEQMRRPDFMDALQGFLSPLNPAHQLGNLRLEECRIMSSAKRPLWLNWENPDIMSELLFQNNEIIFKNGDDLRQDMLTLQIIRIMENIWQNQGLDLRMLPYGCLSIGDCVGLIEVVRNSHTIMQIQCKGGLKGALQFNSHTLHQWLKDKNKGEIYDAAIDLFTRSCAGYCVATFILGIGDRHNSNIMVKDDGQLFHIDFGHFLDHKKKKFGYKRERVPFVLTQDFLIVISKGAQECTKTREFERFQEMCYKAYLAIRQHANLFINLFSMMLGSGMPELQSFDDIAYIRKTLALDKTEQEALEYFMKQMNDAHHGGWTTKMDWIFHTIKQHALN
Assay: PI3K-alpha kinase (PIK3CA) in vitro cell based assay, MDA-MB-453 cells, SureFire Ultra AlphaLisa
Settings: read-out: PI3K-α (PIK3CA) in vitro cell based assay IC50
recordedEndpoint: IC50

Some molecules with known IC50 results, for comparison:
Cc1cc(C(C)Nc2cccc(F)c2C(=O)O)c2oc(-c3ccc4cnn(C)c4c3)cc(=O)c2c1 (single isomer, unassigned) [Example 221]
> 0.5 µM
Cc1cc([C@@H](C)Nc2ccc(C)nc2C(=O)O)c2oc(-c3ccc4nc(C)cn4c3)cc(=O)c2c1
0.1 to 0.5 µM
Cc1cc([C@@H](C)Nc2ccc(Br)nc2C(=O)O)c2oc(-c3ccc4nn(C)cc4c3)c(C)c(=O)c2c1
< 0.05 µM
Cc1cc([C@@H](C)Nc2ccc(Cl)nc2C(=O)O)c2oc(-c3ccc4nc(C)sc4n3)c(C)c(=O)c2c1
< 0.05 µM
Cc1cc(C(C)Nc2ccccc2C(=O)O)c2oc(-c3cc4cccnc4cn3)cc(=O)c2c1 (single isomer, unassigned)
< 0.05 µM
Cc1cc(C(C)Nc2cccc(F)c2C(=O)O)c2oc(-c3cc(C)c4nn(C)cc4c3)cc(=O)c2c1 (single isomer, unassigned)
0.05 to 0.1 µM
CC(Nc1ccc(Cl)nc1C(=O)O)c1cc(C(F)(F)F)cc2c(=O)cc(-c3cc(Cl)c4nn(C)cc4c3)oc12 (single isomer, unassigned)
< 0.05 µM
Cc1cc([C@@H](C)Nc2ccccc2C(=O)O)c2oc(-c3ccc4nc(C)sc4c3)c(C)c(=O)c2c1
< 0.05 µM
Cc1cc(C(C)Nc2ccccc2C(=O)O)c2oc(-c3ccc4nccn4n3)cc(=O)c2c1 (single isomer, unassigned)
> 0.5 µM
Cc1cc([C@@H](C)Nc2ccc(Cl)cc2C(=O)O)c2oc(-c3ccc4nn(C)cc4c3)c(C)c(=O)c2c1
< 0.05 µM

Given the molecule Cc1cc(C(C)Nc2ccccc2C(=O)O)c2oc(-c3ccc4cc[nH]c4c3)cc(=O)c2c1 (stereo not shown) , what is its reported IC50? 0.1 to 0.5 µM

Given the molecule Cc1cc(C(C)Nc2ccccc2C(=O)O)c2oc(-c3ccc4c(c3)NC(=O)C4)cc(=O)c2c1 (single isomer, unassigned) , what is its reported IC50? 0.1 to 0.5 µM

Given the molecule `Cc1cc([C@@H](C)Nc2ccccc2C(=O)O)c2oc(-c3ccc4c(cnn4Cc4ccccc4)c3)c(C)c(=O)c2c1` , what is its reported IC50? 0.05 to 0.1 µM

Given the molecule CC(Nc1ccccc1C(=O)O)c1cc(F)cc2c(=O)cc(-c3cc4ccccc4[nH]3)oc12 (single isomer, unassigned) , what is its reported IC50? < 0.05 µM

Given the molecule Cc1cc(C(C)Nc2ccccc2C(=O)O)c2oc(-c3cc(Cl)c4nn(C)cc4c3)cc(=O)c2c1 (single isomer, unassigned) , what is its reported IC50? < 0.05 µM

Given the molecule Cc1cc(C(C)Nc2ccc(Cl)nc2C(=O)O)c2oc(-c3ccc4cc[nH]c4n3)cc(=O)c2c1 (single isomer, unassigned) [Example 216] , what is its reported IC50? > 0.5 µM

Given the molecule Cc1cc(C(C)Nc2ccccc2C(=O)O)c2oc(-c3ccc4nc(C)cn4c3)cc(=O)c2c1 (single isomer, unassigned) , what is its reported IC50? > 0.5 µM

* * *

Target: PI3K-α (PIK3CA) H1047R mutant, p110α/p85α complex (Homo sapiens, UniProt P42336, H1047R)
Construct: Recombinant, catalytically active human full length PIK3KA Wild-type and H1047R mutant; 6×His (N); purchased EMD Millipore Sigma 14-792M
Sequence (P42336 whole entry H1047R): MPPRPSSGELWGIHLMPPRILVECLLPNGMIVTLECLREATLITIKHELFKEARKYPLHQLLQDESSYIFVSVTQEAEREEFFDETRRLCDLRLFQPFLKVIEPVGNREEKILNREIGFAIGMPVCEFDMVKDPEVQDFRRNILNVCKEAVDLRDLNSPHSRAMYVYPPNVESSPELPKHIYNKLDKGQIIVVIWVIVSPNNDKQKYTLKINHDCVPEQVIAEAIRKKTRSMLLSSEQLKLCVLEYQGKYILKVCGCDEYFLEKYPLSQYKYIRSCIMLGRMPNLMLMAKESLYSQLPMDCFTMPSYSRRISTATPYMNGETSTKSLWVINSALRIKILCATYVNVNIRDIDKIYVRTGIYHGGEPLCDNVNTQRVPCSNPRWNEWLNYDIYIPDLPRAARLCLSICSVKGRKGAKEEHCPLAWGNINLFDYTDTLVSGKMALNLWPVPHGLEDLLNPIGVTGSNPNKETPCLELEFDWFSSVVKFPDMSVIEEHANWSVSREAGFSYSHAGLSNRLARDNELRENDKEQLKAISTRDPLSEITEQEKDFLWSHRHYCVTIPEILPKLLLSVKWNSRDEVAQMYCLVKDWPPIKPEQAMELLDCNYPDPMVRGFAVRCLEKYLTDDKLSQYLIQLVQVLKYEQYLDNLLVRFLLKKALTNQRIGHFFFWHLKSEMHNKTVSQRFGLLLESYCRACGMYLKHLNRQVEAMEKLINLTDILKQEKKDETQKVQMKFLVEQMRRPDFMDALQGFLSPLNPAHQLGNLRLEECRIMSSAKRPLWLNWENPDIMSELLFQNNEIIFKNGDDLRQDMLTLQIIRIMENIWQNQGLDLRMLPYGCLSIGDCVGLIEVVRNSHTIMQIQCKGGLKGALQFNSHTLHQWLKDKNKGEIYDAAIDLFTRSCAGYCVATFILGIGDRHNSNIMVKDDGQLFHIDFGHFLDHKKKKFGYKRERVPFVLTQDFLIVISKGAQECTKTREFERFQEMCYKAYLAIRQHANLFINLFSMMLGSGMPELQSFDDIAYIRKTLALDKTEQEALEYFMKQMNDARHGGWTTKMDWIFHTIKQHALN
Sequence (P27986 whole entry partner): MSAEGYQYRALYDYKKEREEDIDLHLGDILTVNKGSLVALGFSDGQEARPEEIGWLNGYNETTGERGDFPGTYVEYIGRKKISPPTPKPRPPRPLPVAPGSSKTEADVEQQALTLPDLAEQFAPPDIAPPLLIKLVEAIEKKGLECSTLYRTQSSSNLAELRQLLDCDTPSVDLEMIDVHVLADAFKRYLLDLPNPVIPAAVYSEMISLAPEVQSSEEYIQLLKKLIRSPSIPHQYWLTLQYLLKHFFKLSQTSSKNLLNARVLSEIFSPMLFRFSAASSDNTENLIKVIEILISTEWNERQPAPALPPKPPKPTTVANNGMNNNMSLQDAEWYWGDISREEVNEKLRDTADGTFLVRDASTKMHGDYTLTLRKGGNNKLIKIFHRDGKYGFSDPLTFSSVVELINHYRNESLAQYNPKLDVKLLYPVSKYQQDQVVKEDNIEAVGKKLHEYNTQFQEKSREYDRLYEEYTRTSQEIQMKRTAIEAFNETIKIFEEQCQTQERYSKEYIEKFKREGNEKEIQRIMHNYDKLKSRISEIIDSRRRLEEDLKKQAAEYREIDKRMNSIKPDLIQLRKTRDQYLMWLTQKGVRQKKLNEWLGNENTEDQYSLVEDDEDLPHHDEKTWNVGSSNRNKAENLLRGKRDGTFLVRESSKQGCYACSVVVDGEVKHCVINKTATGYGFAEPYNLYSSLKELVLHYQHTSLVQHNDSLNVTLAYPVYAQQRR
Assay: PI3K-alpha kinase (PIK3CA) biochemical activity, ADP-Glo, H1047R mutant
Details: Soy PI lipid substrate
Text: PI3K-Alpha Kinase (PIK3CA) Activity, Wild-Type and H1047R Mutant and Determining IC50 Values for Inhibitors Recombinant, catalytically active human full length PIK3KA Wild-type and H1047R mutant were purchased as 1:1 complex of N-terminal 6×his tagged p110α (catalytic) and untagged p85α (regulatory subunit) from EMD Millipore Sigma (cat. no. 14-602M and 14-792M, respectively). […]
pIC50: −log10 of the molar value.
recordedEndpoint: pIC50

Given the compound Cc1cc([C@@H](C)Nc2ccc(Cl)nc2C(=O)O)c2oc(-c3cc4ccccc4[nH]3)c(C)c(=O)c2c1 [Example 196] , what is its reported pIC50? > 6.30

Given the compound Cc1cc(C(C)Nc2ccc(C)nc2C(=O)O)c2oc(-c3ccc4nn(C)cc4c3)cc(=O)c2c1 (single isomer, unassigned) [Example 180] , what is its reported pIC50? > 6.30

Given the compound Cc1cc(C(C)Nc2ccc(Cl)nc2C(=O)O)c2oc(-c3ccc4cc[nH]c4n3)cc(=O)c2c1 (single isomer, unassigned) [Example 215] , what is its reported pIC50? > 6.30

Given the compound Cc1cc(C(C)Nc2ccccc2C(=O)O)c2oc(-c3ccc4oc(=O)[nH]c4c3)cc(=O)c2c1 (single isomer, unassigned) [Example 24] , what is its reported pIC50? > 6.30

Given the compound Cc1cc(C(C)Nc2ccccc2C(=O)O)c2oc(-c3ccc4nccn4n3)cc(=O)c2c1 (stereo not drawn) [Example 15] , what is its reported pIC50? > 6.30

Given the compound Cc1cn2cc(-c3oc4c(C(C)Nc5ccccc5C(=O)O)cc(F)cc4c(=O)c3C)ccc2n1 (single isomer, unassigned) [Example 56] , what is its reported pIC50? < 5.00

Given the compound Cc1cc(C(C)Nc2ccccc2C(=O)O)c2oc(-c3ncc4cc(C)[nH]c4n3)cc(=O)c2c1 (single isomer, unassigned) [Example 72] , what is its reported pIC50? > 6.30

Given the compound CC(Nc1ccccc1C(=O)O)c1cc(C(F)(F)F)cc2c(=O)cc(-c3ccc4c(cnn4C)c3)oc12 (single isomer, unassigned) [Example 109] , what is its reported pIC50? > 6.30

Given the compound Cc1cc(C(C)Nc2ccccc2C(=O)O)c2oc(-c3ccn4c(-c5ncco5)c(C)nc4c3)cc(=O)c2c1 (single isomer, unassigned) [Example 133] , what is its reported pIC50? < 5.00
